tested on: WEHI 231 cells; experiment: TUNEL analysis of Actinomycin D induced apoptosis, flow cytometry; type: cell-based, murine; details: 1 μM inhibitor + ActD, WEHI 231, lower = greater inhibitory activity
Peptide text beside a SMILES is read from it. * marks the point of attachment. Cbz = O=C(OCc1ccccc1)*; CH2F = FC*
Metric Name: % non-viable cells (%)
Kindly answer with a numeric value in %, unit omitted.

Value of measured % non-viable cells for the entry COC(=O)CC(NC(=O)C(NC(=O)c1ccc2ccccc2n1)C(C)C)C(=O)COc1c(F)cccc1F (stereo not drawn) : 88

Value of measured % non-viable cells for the entry COC(=O)CC(NC(=O)CCNC(=O)c1ccc2ccccc2n1)C(=O)CF (stereo not drawn) : 62

Value of measured % non-viable cells for the entry COC(=O)CC(NC(=O)C(C)NC(=O)C(NC(=O)OCc1ccccc1)C(C)C)C(=O)COc1c(F)cccc1F (stereo not drawn) : 56

Value of measured % non-viable cells for the entry COC(=O)CC(NC(=O)C(C)NC(=O)c1ccc2ccccc2n1)C(=O)CF (stereo not drawn) : 88

Value of measured % non-viable cells for the entry COC(=O)CC(NC(=O)C(CC(C)C)NC(=O)c1ccc2ccccc2n1)C(=O)COc1ccccc1 (stereo not drawn) : 88

Value of measured % non-viable cells for the entry COC(=O)CC(NC(=O)C(C)NC(=O)C(NC(=O)OCc1ccccc1)C(C)C)C(=O)CF (stereo not drawn) [Z-VAD-FMK, reference compound] (Cbz-Val-Ala-Asp(OMe)-CH2F; configuration not given here) : 33
